system: isolated rat AR-LBD (Rattus norvegicus)
Construct: purchased Invitrogen PV4293
Sequence (P15207 651-882 limits assumed): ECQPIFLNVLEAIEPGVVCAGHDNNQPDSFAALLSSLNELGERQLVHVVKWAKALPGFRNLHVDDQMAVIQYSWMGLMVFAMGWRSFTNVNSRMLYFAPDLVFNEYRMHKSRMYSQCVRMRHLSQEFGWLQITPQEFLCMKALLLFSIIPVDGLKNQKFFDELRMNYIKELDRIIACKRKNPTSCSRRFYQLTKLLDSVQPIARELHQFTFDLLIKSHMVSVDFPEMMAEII
experimentalDetails: Androgen Receptor Ligand Binding Domain Competitive Binding Assay (fluorescence polarisation, PolarScreen)
setupConditions: FP, 12 nM AR-LBD, 2 nM fluormone, 4-6 hours at room temperature, 50% reduction in tracer binding; read-out: Androgen Receptor Ligand Binding Domain Competitive Binding Assay (b) IC50/μM
# reported IC50; entries follow
Quick note: unit goes after the number.

Known results for molecules:
Let me know recorded IC50 for CN1CCN(CCOc2ccc(C3CCN(C4=Nn5c(nnc5C(F)(F)F)CC4)CC3)cc2)CC1=O , thanks. 61.9 µM

Let me know recorded IC50 for CC(=O)N1CCN(CCOc2ccc(C3CCN(C4=Nn5c(nnc5C(F)(F)F)CC4)CC3)cc2)CC1 , thanks. 22.9 µM

Let me know recorded IC50 for CC(=O)N1CCN(CCOc2ccc(C3CCN(C4=Nn5c(nnc5C(F)(F)F)CC4)CC3)cc2)C[C@H]1C , thanks. 30.3 µM

For the next question, use this molecule.
Let me know recorded IC50 for CC(=O)N1CCN(CCCOc2ccc(C3CCN(C4=Nn5c(nnc5C(F)(F)F)CC4)CC3)cc2)CC1 , thanks. 23.8 µM

The origin of these recorded values is patent US8258140B2.
